# Tested on: HepG2/2.2.15
# Assay overview: SRB cytotoxicity assay, HepG2/2.2.15
# Assay type: cell-based
# Condition summary: Homo sapiens; HepG2/2.2.15, incubation 72 h
Recorded metric: IC50 (µM)
Give the value, in units of µM, as a plain number.

Inquiry: # query: IC50 of entry CC[C@@]1(O)C(=O)OCc2c1cc1n(c2=O)Cc2cc3c(CN(C)C)c(O)ccc3nc2-1
Reply text: 0.58
